- TARGET_OF_ASSAY: CDK9/Cyclin T1 (Homo sapiens)
- ASSAY_EXPLANATION: CDK9 enzyme protocol (LANCE ULight TR-FRET kinase assay)
- SETUP_CONDITIONS: 4 nM CDK9/Cyclin T1, 1000 μM ATP, 100 nM U-light MBP peptide, 30 minutes
MEASURED_ATTRIBUTE: IC50 (nM)

>>> meas_value("Cc1cc(Cl)cc(-c2ncnc3[nH]c(C4=CCN(S(C)(=O)=O)CC4)cc23)c1F")
11700
>>> meas_value("Fc1ccc(NCc2ccccc2)cc1-c1ncnc2[nH]c(C3CCNCC3)cc12")
72
>>> meas_value("COc1ccc(F)cc1-c1ncnc2[nH]c(C3=CCN(S(=O)(=O)C4CC4)CC3)cc12")
19
>>> meas_value("COCC(=O)N1CC=C(c2cc3c(-c4cc(F)ccc4OC)ncnc3[nH]2)CC1")
130
>>> meas_value("COc1ccc(F)cc1-c1ncnc2[nH]c(C3=CCN(Cc4ccc(C#N)cc4)CC3)cc12")
240

I. COc1ccc(F)cc1-c1ncnc2[nH]c(C3=CCN(C(=O)[C@H]4CC[C@H](C(=O)O)CC4)CC3)cc12
II. CS(=O)(=O)N1CC=C(c2cc3c(-c4cc(NCC5CCCO5)ccc4F)ncnc3[nH]2)CC1 (centres unmarked)
III. COc1ccc(F)cc1-c1ncnc2[nH]c(C3=CCC(N[C@@H](CC(C)C)C(=O)O)CC3)cc12 (some centres unmarked)
Problem: Hey, quick one: sort these by IC50, low to high? Sort and list the labels as requested.
Solution: I, III, II

* * *

- TARGET_OF_ASSAY: CDK9/Cyclin T1 (Homo sapiens, UniProt P50750)
- Sequence (P50750 whole entry): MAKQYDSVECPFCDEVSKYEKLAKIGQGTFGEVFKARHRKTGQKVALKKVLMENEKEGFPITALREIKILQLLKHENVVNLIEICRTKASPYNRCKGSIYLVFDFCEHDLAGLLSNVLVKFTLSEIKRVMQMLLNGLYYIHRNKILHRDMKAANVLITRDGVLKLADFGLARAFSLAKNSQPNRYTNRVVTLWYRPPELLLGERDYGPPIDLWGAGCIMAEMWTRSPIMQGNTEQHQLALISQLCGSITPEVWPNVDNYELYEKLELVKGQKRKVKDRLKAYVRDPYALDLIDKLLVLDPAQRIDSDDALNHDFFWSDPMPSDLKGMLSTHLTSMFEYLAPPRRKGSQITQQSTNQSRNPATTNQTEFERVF
- Sequence (O60563 whole entry partner): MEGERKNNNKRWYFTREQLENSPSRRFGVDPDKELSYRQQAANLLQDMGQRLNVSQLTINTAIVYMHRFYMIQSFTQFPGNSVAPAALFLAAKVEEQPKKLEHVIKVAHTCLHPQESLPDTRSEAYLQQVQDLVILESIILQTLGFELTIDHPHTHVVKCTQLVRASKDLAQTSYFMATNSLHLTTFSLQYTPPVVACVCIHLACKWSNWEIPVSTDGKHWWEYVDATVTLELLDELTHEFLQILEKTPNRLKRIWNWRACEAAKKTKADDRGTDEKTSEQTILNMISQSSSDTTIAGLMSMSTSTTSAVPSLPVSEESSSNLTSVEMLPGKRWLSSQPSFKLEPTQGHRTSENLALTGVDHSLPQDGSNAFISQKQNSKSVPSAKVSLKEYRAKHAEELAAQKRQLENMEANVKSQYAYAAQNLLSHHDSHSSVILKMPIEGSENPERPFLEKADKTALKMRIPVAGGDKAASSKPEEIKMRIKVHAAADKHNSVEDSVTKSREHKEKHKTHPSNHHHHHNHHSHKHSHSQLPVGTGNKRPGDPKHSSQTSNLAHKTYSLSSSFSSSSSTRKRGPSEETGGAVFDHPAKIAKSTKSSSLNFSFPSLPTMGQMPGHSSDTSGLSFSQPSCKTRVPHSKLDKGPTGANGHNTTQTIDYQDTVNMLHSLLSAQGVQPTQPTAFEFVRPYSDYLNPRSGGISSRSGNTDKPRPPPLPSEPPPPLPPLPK
- ASSAY_EXPLANATION: CDK9 enzyme protocol (LANCE ULight TR-FRET kinase assay)
- SETUP_CONDITIONS: 4 nM CDK9/Cyclin T1, 1000 μM ATP, 100 nM U-light MBP peptide, 30 minutes
- Method: CDK9 enzyme activities were measured using LANCE ULight TR-FRET kinase assay reagents (PerkinElmer, Waltham, Mass.). Compounds were directly added in 100% DMSO to white low volume assay plates (Perkin Elmer Proxiplate 6008289) using a Labcyte Echo acoustic dispenser. […] The reaction was equilibrated for 1 hour and the signal read in the Perkin Elmer Envision in TR-FRET mode (excitation at 320 nm and emission at 615/665 nm).
pIC50: −log10 of the molar value.
MEASURED_ATTRIBUTE: pIC50

Past entries and their recorded results:
>>> meas_value("CS(=O)(=O)N1CC=C(c2cc3c(-c4cc(NCc5ccccn5)ccc4F)ncnc3[nH]2)CC1")
6.52
>>> meas_value("C=CCNC(=O)N1CC=C(c2cc3c(-c4cc(F)ccc4OC)ncnc3[nH]2)CC1")
7.06
>>> meas_value("COc1ccc(F)cc1-c1ncnc2[nH]c(C3=CCN(Cc4ccc(NC(C)=O)cc4)CC3)cc12")
7.12

I. COc1ccc(F)cc1-c1ncnc2[nH]c(C3=CCC(N[C@H](C(=O)O)C(C)C)CC3)cc12 (stereo partly drawn)
II. COc1ccc(F)cc1-c1ncnc2[nH]c(C3=CCN(C(=O)C4CCC(=O)NC4)CC3)cc12 (stereo not drawn)
Problem: Parameter metric = pIC50. Return the lower-valued option from I and II . Use the label to indicate which entry you chose.
Solution: I
(I: 6.12, II: 7.19)

I. CCCOc1ccc(C)cc1-c1ncnc2[nH]c(C3=CCN(S(C)(=O)=O)CC3)cc12
II. COc1ccc(F)cc1-c1ncnc2[nH]c(C3=CCOCC3)cc12
III. CS(=O)(=O)N1CC=C(c2cc3c(N4CCC(F)(F)CC4)ncnc3[nH]2)CC1
IV. COC(=O)c1ccc(CN2CC=C(c3cc4c(-c5cc(F)ccc5OC)ncnc4[nH]3)CC2)cc1
V. COc1ccc(F)cc1-c1ncnc2[nH]c(C3=CCC(N[C@H](C(=O)O)C4CCCCC4)CC3)cc12 (stereo partly drawn)
Problem: Highest pIC50 first, then in falling order down to the smallest. Sort and list the labels as requested.
Solution: II, IV, V, III, I
(II: 7.16, IV: 6.96, V: 6.54, III: 5.89, I: 5.55)

a. Cn1cc(-c2ncnc3[nH]c(C4=CCN(S(C)(=O)=O)CC4)cc23)cn1
b. CCN1CCC(C(=O)N2CC=C(c3cc4c(-c5cc(F)ccc5OC)ncnc4[nH]3)CC2)C1 (stereo not drawn)
Problem: Of the two listed items, which has the higher pIC50? First: a Second: b Use the label to indicate which entry you chose.
Solution: b
